Reference for the values: patent US9403801B2

assay: Compound stability in rat liver microsomes; format: in vitro ADME; details: pH 7.4; Rat liver microsomes 0.5 mg protein/mL, compound 5 μM, NADPH 1.0 mM, 37° C.
measuredAttribute: half-life at 5 μM (min)

[I] Cn1nc(C2CC2)cc1Nc1ncc(Cl)c(NC2CC3CN(C(=O)CC#N)CC3C2)n1 (centres unmarked)
[II] Cc1cnc(Nc2cnn(C)c2)nc1NC1CC2CN(C(=O)CC#N)CC2C1 (centres unmarked)
Which gives the smaller half-life at 5 μM number: I or II ? Pick one; state its label.
I
(I: 41.4 min, II: 240 min)

[a] Cn1cc(Nc2ncc(Cl)c(NC3CC4CN(C(=O)C(F)(F)F)CC4C3)n2)cn1 (centres unmarked)
[b] CC(=O)N1CC2CC(Nc3nc(Nc4cnn(C)c4)ncc3Cl)CC2C1 (centres unmarked)
[c] CN(c1nc(Nc2cnn(C)c2)ncc1Cl)C1CC2CN(C(=O)CC#N)CC2C1 (centres unmarked)
[d] Cc1cnc(Nc2cnn(C)c2)nc1NC1CC2CN(S(C)(=O)=O)CC2C1 (centres unmarked)
[e] N#CCC(=O)N1CC2CC(Nc3nc(Nc4cnn(CCO)c4)ncc3Cl)CC2C1 (centres unmarked)
# rank_down: sort by half-life at 5 μM, max first Sort and list the labels as requested.
e, d, b, c, a
(e: 398 min, d: 81.1 min, b: 27.2 min, c: 12.2 min, a: 2.31 min)

[a] Cn1cc(Nc2ncc(C#N)c(NC3CC4CN(C(=O)CC#N)CC4C3)n2)cn1 (centres unmarked)
[b] Cn1cc(Nc2ncc(Cl)c(NC3CC4CN(CC(F)(F)F)CC4C3)n2)cn1 (centres unmarked)
[c] Cn1cc(Nc2ncc(Cl)c(NC3CC4CN(S(C)(=O)=O)CC4C3)n2)cn1 (centres unmarked)
Order the records by half-life at 5 μM, with each subsequent value no larger than the one before. Give me the labels in the order the question wants.
a, c, b
(a: 26.4 min, c: 13.2 min, b: 2.72 min)

[I] CC(=O)N1CC2CC(Nc3nc(Nc4cc(C5CC5)[nH]n4)ncc3Cl)CC2C1 (centres unmarked)
[II] Cc1nn(C)cc1Nc1ncc(Cl)c(NC2CC3CN(C(=O)CC#N)CC3C2)n1 (centres unmarked)
[III] Cn1cc(Nc2ncc(Cl)c(NC3CCC4CN(C(=O)CC#N)CC4C3)n2)cn1 (centres unmarked)
List these items ordered by half-life at 5 μM, big to small. List each label, following the requested order.
II, I, III
